system: Calu-3; test: cell viability relative to DMSO; higher = less toxic; conditions: 72 h; 10 nM
Measured Endpoint: cell viability (%)
Form entry: value (%) — number only.

Give the measured cell viability of Cc1ccccc1NC(=N)Nc1ccccc1C .
104

// query: N[C@@H](CSC(c1ccccc1)(c1ccccc1)c1ccccc1)C(=O)O
104

Can you handle CC(=O)Oc1ccccc1C(=O)Oc1ccccc1C(=O)O next?
78.8

Next compound: CN=c1nc(-c2ccccc2)n(-c2ccccc2)s1
101

Consider next the compound O=S1(=O)c2cccc3cccc(c23)N1CCCN1CCN(c2ccc(F)cc2)CC1 in the same way.
89.5

Another compound to look at: O=C(Nc1ccccc1)[C@]12C[C@H]1/C(=N\O)c1ccccc1O2
102

Same lookup for CCCCCC(C)N (stereo not drawn) , please.
98.6

Entry to check: CNC(=O)c1ccc(C)c(-n2c(C)cc(OCc3ccc(F)cc3F)c(Br)c2=O)c1
92.6

For Cc1c(C)c2c(c(C)c1OC(=O)CCC(=O)OCCO)CC[C@@](C)(CCC[C@H](C)CCC[C@H](C)CCCC(C)C)O2 then?
101

Then what about the compound CCOC(=O)C1=C(C)NC(C)=C(C(=O)OC)[C@@H]1c1cccc([N+](=O)[O-])c1 (racemic) ?
92.3

Please do the same for Cn1nnnc1SCC1=C(C(=O)O)N2C(=O)[C@@H](NC(=O)[C@H](OC=O)c3ccccc3)[C@H]2SC1 [cefamandole-nafate] as well.
108

What do you have for N#Cc1ncccn1 ?
99.3

What about CC(C)CCNC(=O)[C@H](CC(C)C)NC(=O)[C@H]1O[C@@H]1C(=O)O ?
95.8

---

Task for the reader: assign each of the following compounds its reported cell viability.
test system: HepG2; test: cell viability relative to DMSO; higher = less toxic; conditions: 72 h; 1000 nM
Quick note: give the figure in %, leave out the unit.

Give its cell viability value. Item: O=C(NOCCO)c1ccc2cncn2c1Nc1ccc(I)cc1F
19.6

Input CC(C)(O)CS(=O)(=O)Nc1ccc2c(c1)CCN(C(=O)COc1cccnc1)C2
20.1

How about this compound: CC(=O)c1c(C)c2cnc(Nc3ccc(N4CCNCC4)cn3)nc2n(C2CCCC2)c1=O
65.9

Record: Cc1cc(Oc2ccc3nc(COc4ccc(CC5SC(=O)NC5=O)cc4)n(C)c3c2)cc(C)c1N (stereo unspecified)
104

Subsequent entry: CC[C@@H]([C@H](C)O)n1ncn(-c2ccc(N3CCN(c4ccc(OC[C@@H]5CO[C@@](Cn6cncn6)(c6ccc(F)cc6F)C5)cc4)CC3)cc2)c1=O
96.6

# repeat for COc1cc(NS(=O)(=O)c2ccc(N)cc2)ncn1
107

Would you mind doing Oc1cc2c(cc1O)C(c1ccccc1)CNCC2 (stereo unspecified) as well?
91.8

Moving on to the next compound: C=CCN1CCN(c2nc3ccccc3nc2C#N)CC1
97.5

Same again, this time with CC(C)(C)NCC(O)COc1cc(Cl)ccc1Cl (stereo unspecified)
94.8

What would you report for c1cnc(NCc2ccc(CNc3ncccn3)cc2)nc1 ?
92.3

One more compound: CCCCCCCCCCCCCCCC=O
95.8

Would you kindly repeat that for NC(=O)c1nc(F)cnc1O ?
79.1

Please give the result for O=c1cc(-c2ccc(O)c(O)c2)oc2cc(O)cc(O)c12 too.
97.5

Next compound: Cn1nnnc1SCC1=C(C(=O)O)N2C(=O)[C@@H](NC(=O)[C@H](OC=O)c3ccccc3)[C@H]2SC1 [cefamandole-nafate]
94.3

Please answer likewise for Cc1ccccc1N1CCN(CCc2nnc3n2CCCC3)CC1
94.3

Same lookup for O=C(Nc1ccc(N2CCC(C(=O)N3CCOCC3)CC2)cc1)c1cnc(Oc2ccccc2)nc1 , please.
91.8

---

test system: U2OS; experiment: cell viability relative to DMSO; higher = less toxic; settings: 72 h; 1 nM
Measured Endpoint: cell viability (%)
Please reply with the bare figure in % and do not write the unit itself.

May I ask what cell viability has been recorded for CCn1cc(C(=O)O)c(=O)c2ccc(C)nc21 ?
100

Thanks! And NCCC(O)(P(=O)(O)O)P(=O)(O)O [pamidronate] ?
98.7

Next entry: O=C(O)CCCCC(=O)O
102

One more molecule: Cc1cc(CCC[C@H](CC(=O)NO)C(=O)N[C@H](C(=O)N[C@H](C)c2ccccc2)C(C)(C)C)ccc1-c1ccccc1
99.1

---

tested on: Vero E6; assay: cell viability relative to DMSO; higher = less toxic; conditions: 72 h; 10 nM
Measured Endpoint: cell viability

Report cell viability for CC(C)CCNC(=O)[C@H](CC(C)C)NC(=O)[C@H]1O[C@@H]1C(=O)O tested on Vero E6.
107%

Same thing, different compound: Cc1ccc(/C=N/NC(=O)c2ccccc2Oc2ccccc2)o1
101%

Also need CCOc1cc(N2CCC(O)CC2)ccc1Nc1ncc2c(n1)N(C)c1ccccc1C(=O)N2C , thanks.
93.2%

Quick one: COc1ccc(CCN(C)CCc2ccc(OC)c(OC)c2)cc1OC
99.9%

How about this compound: CC(C)(C)Cn1c(N)nc2ccc(-c3[nH]c(C(C)(C)C)nc3-c3ccc(F)cc3)nc21
94.5%

How about this compound: FC(F)(F)c1ccc(CNc2ccc(Cc3c[nH]c4ncc(Cl)cc34)cn2)cn1
96.4%

Entry CC(O)(P(=O)(O)O)P(=O)(O)O please
91.1%

Entry CC#CCn1c(N2CCC[C@@H](N)C2)nc2c1c(=O)n(Cc1nc(C)c3ccccc3n1)c(=O)n2C please
106%

Try C[C@@H]1CC(=O)NN=C1c1ccc(NN=C(C#N)C#N)cc1 next.
102%

Next compound up: O=C(c1ccc(/C=C/c2n[nH]c3ccccc23)cc1)N1CCNCC1
104%

One more compound: O=C(C=Cc1ccccc1)NC(NC(=S)Nc1ccc(Cl)cc1)C(Cl)(Cl)Cl (stereo not given)
102%

Please answer likewise for CC(C)=CCC[C@]1(C)C=Cc2c(O)c3c(c(CC=C(C)C)c2O1)O[C@]12C(=C[C@@H]4C[C@H]1C(C)(C)O[C@@]2(C/C=C(/C)C(=O)O)C4=O)C3=O
104%

Further, for C[C@H](Nc1ncnc2[nH]cnc12)c1nc2ccc(F)cc2c(=O)n1-c1ccccc1 ?
101%

Also Nc1ccn([C@@H]2O[C@H](CO)[C@@H](O)C2(F)F)c(=O)n1 ?
102%

What about this compound? Oc1cc2c(cc1O)C(c1ccccc1)CNCC2 (stereo not given)
98.2%

One more compound: COc1ccc2c(OCc3nnc4ccc(-c5ccccc5)nn34)ccnc2c1
92.1%

Moving on to the next compound: CO[C@H]1/C=C/O[C@@]2(C)Oc3c(C)c(O)c4c(O)c(c(/C=N/N=C/N5CCCCC5)c(O)c4c3C2=O)NC(=O)/C(C)=C\C=C\[C@H](C)[C@H](O)[C@@H](C)[C@@H](O)[C@@H](C)[C@H](OC(C)=O)[C@@H]1C
100%

Please do the same for COc1ccc(S(=O)(=O)Nc2c(C)cc(C)cc2C)cc1 as well.
105%

And what about the compound OCCn1cc(-c2cnc3nnn(Cc4ccc5ncccc5c4)c3n2)cn1 ?
105%

Cool, now CC[C@@H]([C@H](C)O)n1ncn(-c2ccc(N3CCN(c4ccc(OC[C@@H]5CO[C@@](Cn6cncn6)(c6ccc(F)cc6F)C5)cc4)CC3)cc2)c1=O
106%

---

tested on: Caco-2; assay: cell viability relative to DMSO; higher = less toxic; details: 72 h; 10 nM
Measured Endpoint: cell viability (%)
A number alone suffices; assume %.

Requested field: cell viability. Item: Cc1cc(CCC[C@H](CC(=O)NO)C(=O)N[C@H](C(=O)N[C@H](C)c2ccccc2)C(C)(C)C)ccc1-c1ccccc1
95.2

Next entry: COc1[nH]c2ccc(F)cc2c1C(=O)OCC1CCN(CCNS(C)(=O)=O)CC1
99.3

Also COc1cc(NS(=O)(=O)c2ccc(N)cc2)ncn1 , if possible.
102

Subsequent entry: Cc1c(C2CCN(CCc3ccccc3)CC2)noc1-c1ccc(Cl)cc1
106

How about this molecule: CCN1CCC[C@H]1CNC(=O)c1c(O)c(Cl)cc(Cl)c1OC [raclopride]
88.3

Now consider C[C@@H]1C[C@H]2[C@@H]3C[C@H](F)C4=CC(=O)C=C[C@]4(C)[C@@]3(F)[C@@H](O)C[C@]2(C)[C@@]1(O)C(=O)COC(=O)C(C)(C)C [flumethasone-pivalate] and answer again.
103

Again, but for CCS(=O)(=O)CCn1c([N+](=O)[O-])cnc1C
77.8

Likewise for Nc1ccn([C@@H]2O[C@H](CO)[C@@H](O)C2(F)F)c(=O)n1 ?
89

Also CC(=O)Oc1ccccc1C(=O)Oc1ccccc1C(=O)O ?
96.1

What would you report for CC(=O)O[C@H]1Cc2ccccc2N(C(N)=O)c2ccccc21 [eslicarbazepine-acetate] ?
99.9

Now consider C[C@H](Cc1ccc2c(c1)OC(C(=O)O)(C(=O)O)O2)NC[C@H](O)c1cccc(Cl)c1 and answer again.
101

Same question for COC(=O)C1=C(C)NC(C)=C([N+](=O)[O-])[C@@H]1c1ccccc1C(F)(F)F (racemic) [BAY-K-8644-(+/-)] please.
94.5
